subject.of.test: T1, TIA-1 RRM23K (UniProt P31483-2 93-274)
T1 sequence: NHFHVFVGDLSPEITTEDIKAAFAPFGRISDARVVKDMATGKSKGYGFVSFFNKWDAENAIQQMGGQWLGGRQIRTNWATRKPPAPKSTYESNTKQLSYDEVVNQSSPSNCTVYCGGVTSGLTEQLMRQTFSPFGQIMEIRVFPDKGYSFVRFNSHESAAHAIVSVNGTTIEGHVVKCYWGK
protocol.summary: ITC
readout.type: Kd (nM)

{"binder": "UUUUUACUCC (ssRNA) [UC-rich RNA (unlabeled)]", "readout.type": "Kd", "result.number": 12}
{"binder": "ACUCCUUUUU (ssRNA) [CU-rich RNA (unlabeled)]", "readout.type": "Kd", "result.number": 70}
